Can you tell me LogHSA for the items I'm about to list?
Target: human serum albumin (Homo sapiens, UniProt P02768)
Sequence (P02768 25-609): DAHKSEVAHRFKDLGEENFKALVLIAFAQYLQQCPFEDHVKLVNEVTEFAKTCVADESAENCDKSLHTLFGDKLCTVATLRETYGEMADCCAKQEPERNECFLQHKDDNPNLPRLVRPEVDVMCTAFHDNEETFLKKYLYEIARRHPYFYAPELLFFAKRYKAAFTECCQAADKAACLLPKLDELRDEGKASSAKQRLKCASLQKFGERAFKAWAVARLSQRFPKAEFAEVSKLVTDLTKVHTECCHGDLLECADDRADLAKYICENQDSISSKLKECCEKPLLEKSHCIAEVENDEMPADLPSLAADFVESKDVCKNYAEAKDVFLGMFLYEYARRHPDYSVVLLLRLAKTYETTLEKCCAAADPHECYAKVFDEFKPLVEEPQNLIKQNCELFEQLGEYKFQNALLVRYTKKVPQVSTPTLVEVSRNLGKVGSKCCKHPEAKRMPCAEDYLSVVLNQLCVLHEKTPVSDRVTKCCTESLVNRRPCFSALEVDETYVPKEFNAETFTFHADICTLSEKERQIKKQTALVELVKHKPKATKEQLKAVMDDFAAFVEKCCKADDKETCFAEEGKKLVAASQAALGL
Experiment: binding constant to human serum albumin (TRANSIL technology)
Details: log binding constant to human serum albumin, TRANSIL
Give bare numbers.

- COMPOUND: "COC(=O)C1=C(C)NC(C)=C(C(=O)OC(C)C)C1c1cccc2nonc12 (stereo not shown)"
  LogHSA: "−4.301"
- COMPOUND: "Cc1nnc(SCC2=C(C(=O)O)N3C(=O)[C@@H](NC(=O)Cn4cnnn4)[C@H]3SC2)s1"
  LogHSA: "−3.456"
- COMPOUND: "CN(Cc1cnc2nc(N)nc(N)c2n1)c1ccc(C(=O)N[C@@H](CCC(=O)O)C(=O)O)cc1 [Metotrexate]"
  LogHSA: "−3.796"

API: the following record is the query input.
Task: What does the data say about its LogHSA? Entry: CN(C)CCCN1c2ccccc2Sc2ccccc21
Result: −3.301
